Species: Homo sapiens
Method summary: In vitro inhibition of histamine release from human basophils
Format: functional, organism-based
Applied conditions: Homo sapiens
Reported endpoint: IC50 (nM)

INSERT INTO assay_data (smiles_notation, reported_endpoint, value_units, quantitative_readout) VALUES
  ('Cc1cccc(Nc2nccc(-c3ccc(C)o3)n2)c1', 'IC50', 'nM', 2000),
  ('Cc1cccc(Nc2nccc(-c3cccs3)n2)c1', 'IC50', 'nM', 300),
  ('Oc1ccc(Nc2nccc(-c3ccncc3)n2)cc1', 'IC50', 'nM', 3300),
  ('CNc1ccc(Nc2nccc(-c3ccccn3)n2)cc1', 'IC50', 'nM', 1400);

A: CC(=O)N(C)c1ccc(Nc2nccc(-c3ccncc3)n2)cc1
B: Nc1ccc(Nc2nccc(-c3ccccn3)n2)cc1
C: c1cc(Nc2nccc(-c3ccco3)n2)cc(OCCn2ccnc2)c1
hey, can you rank those compounds up there by IC50? biggest number first please List labels; respect the requested ordering.
B, A, C
(B: 1500 nM, A: 500 nM, C: 200 nM)

----------
Species on record: Homo sapiens
Method summary: In vitro inhibition of histamine release from human basophils
Assay type: functional, organism-based
Applied conditions: Homo sapiens
pIC50: −log10 of the molar value.
Reported endpoint: pIC50

Example entries begin here.
INSERT INTO measurements (smiles_notation, reported_endpoint, quantitative_readout) VALUES
  ('c1cc(Nc2nccc(-c3ccncc3)n2)cc(OCCn2ccnc2)c1', 'pIC50', 6.70),
  ('c1cc(Nc2nccc(-c3cccs3)n2)cc(OCCn2ccnc2)c1', 'pIC50', 7.00),
  ('CC(=O)c1cccc(Nc2nccc(-c3cccnc3)n2)c1', 'pIC50', 5.39),
  ('CN(C)c1cccc(Nc2nccc(-c3cccnc3)n2)c1', 'pIC50', 5.74),
  ('CC(=O)Nc1ccc(Nc2nccc(-c3ccccn3)n2)cc1', 'pIC50', 5.82),
  ('Cc1cccc(Nc2nccc(-c3cc(C)oc3C)n2)c1', 'pIC50', 4.55);

a: COc1cccc(Nc2nccc(-c3ccccn3)n2)c1
b: Cc1cc(-c2ccccn2)nc(Nc2ccc(N(C)C)cc2)n1
c: CC(=O)Nc1cccc(Nc2nccc(-c3cccnc3)n2)c1
hey, can you rank those molecules up there by pIC50? biggest number first please List labels; respect the requested ordering.
a, c, b
(a: 6.70, c: 5.44, b: 4.50)

1: c1ccc(Nc2nccc(-c3ccco3)n2)cc1
2: CC1CCN(c2cccc(Nc3nccc(-c4cccnc4)n3)c2)CC1
Lab note: record which item had the higher pIC50, 1 or 2 . Returns: label corresponding to the selected item.
2
(2: 5.92, 1: 4.49)

P: CN(C)c1ccc(Nc2nccc(-c3ccncc3)n2)cc1
Q: Cc1cccc(Nc2nccc(-c3c[nH]c4ccccc34)n2)c1
Select the item whose pIC50 value is smaller, choosing between P and Q . Returns: label corresponding to the selected item.
P

----------
Species: Homo sapiens
Method summary: In vitro inhibition of histamine release from human basophils
Format: functional, organism-based
Applied conditions: Homo sapiens
Reported endpoint: IC50 (nM)

Example entries begin here.
INSERT INTO results (smiles_notation, quantitative_readout) VALUES
  ('COc1cccc(Nc2nccc(-c3cc4ccccc4o3)n2)c1', 2800),
  ('CC(=O)Nc1ccc(Nc2nccc(-c3cccnc3)n2)cc1', 3600),
  ('c1ccc(-c2ccnc(Nc3cccc(-n4ccnc4)c3)n2)nc1', 300),
  ('NS(=O)(=O)c1cccc(Nc2nccc(-c3cccnc3)n2)c1', 200);

a: c1cc(Nc2nccc(-c3ccco3)n2)cc(-n2ccnc2)c1
b: c1cncc(-c2ccnc(Nc3ccc(-n4ccnc4)cc3)n2)c1
Select the item whose IC50 value is smaller, choosing between a and b . Returns: label corresponding to the selected item.
a
(a: 800 nM, b: 1300 nM)

Sourced from ChEMBL document CHEMBL1126800
